These data points were gathered from paper PMC7826789.

This section presents compounds with their documented Percent Control values.
tested on: NLK; conditions: Compound Concentration (nM):1000;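 note: KINOMEscan scanMAX binding as percent activity remaining versus control; lower means stronger binding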
Please reply with the bare figure in % and do not write the unit itself.

Solved cases (10 shown):
CCc1ccc(Oc2nccc(-c3c(-c4ccc(F)cc4)ncn3C3CCNCC3)n2)cc1 [SB-242719] | 25
NS(=O)(=O)c1ccc(N/N=C2\C(=O)Nc3ccc(C(=O)NCCc4c[nH]cn4)cc32)cc1 [GW300660X] | 100
Cl.c1ccc(Cc2nc3ccc(Nc4ncnc5ccccc45)cc3[nH]2)cc1 [GR269666A] | 100
Cl.O=C(Nc1ccc(Oc2ccc3[nH]c(NC(=O)c4ccco4)nc3c2)cc1)Nc1cc(C(F)(F)F)ccc1F [GW683134A] | 87
COc1ccc2c(-c3ccnc(Nc4cccc(OC(F)(F)F)c4)n3)cnn2n1 [GW810372X] | 81
CN1CCN(C(=O)c2ccc(NC(=O)Nc3ccc(N(C)c4ccnc(Nc5ccc(CS(C)(=O)=O)cc5)n4)cc3)cc2)CC1.Cl [GW830263A] | 80
Nc1ncnc2occ(-c3ccc(NC(=O)Nc4cc(C(F)(F)F)ccc4F)cc3)c12 [GW770249X] | 100
CN(C)CCNC(=O)Nc1ccc(N(C)c2ccnc(Nc3ccc(CS(C)(=O)=O)cc3)n2)cc1.Cl [GW830900A] | 82
COc1ccc2cc(-c3c(-c4ccncc4)nc(-c4ccc(S(C)(=O)=O)cc4C)n3C)ccc2c1 [SB-633825] | 81
Cl.O=S1CCN(Cc2ccc(-c3ccc4ncnc(Nc5ccc(OCc6ccccc6)c(F)c5)c4c3)o2)CC1 [GW576924A] | 100

Query block: Need Percent Control of C[C@@H](Oc1cc(-n2cnc3ccc(OC4CCN(C)CC4)cc32)sc1C(N)=O)c1ccccc1Cl [GSK579289A] , thanks.
Result block: 100

* * *

tested on: FGFR2; conditions: Compound Concentration (nM):1000
measurementType: Percent Control (%)
Record the value in %, omitting the unit from your answer.

These solved cases illustrate the format of a correct answer.
NS(=O)(=O)c1ccc(N/N=C2\C(=O)Nc3ccc(Cl)cc32)cc1 [GW280670X] | 100
COc1cc(N2CCN(C(C)C)CC2)ccc1Nc1nc(Nc2ccc(F)cc2C(=O)NC[C@@H](O)CO)c2cc[nH]c2n1 [GSK1392956A] | 97

Query block: Endpoint output: Percent Control of NS(=O)(=O)c1ccc(N/N=C2\C(=O)Nc3ccc(-c4cnco4)cc32)cc1 [GW276655] . Value?
Result block: 100

Query block: Param item = CN(C)c1cc2c(Nc3ccc4c(cnn4Cc4ccccc4)c3)ncnc2cn1 [GW282974X] ; retrieve measured Percent Control.
Result block: 97

Query block: Request the reported Percent Control associated with NS(=O)(=O)c1ccc(Nc2ncc(-c3ccccc3)o2)cc1 [GW572399X]
Result block: 100

Query block: Reported Percent Control, compound Cl.O=S1CCN(Cc2ccc(-c3ccc4ncnc(Nc5ccc(OCc6ccccc6)c(F)c5)c4c3)o2)CC1 [GW576924A] : ____
Result block: 100

Query block: Which value of Percent Control has been reported for CCc1ccc(Oc2nccc(-c3c(-c4ccc(F)cc4)ncn3C3CCNCC3)n2)cc1 [SB-242719] in the records?
Result block: 100

* * *

Listed below: Percent Control values for each entry.
tested on: FLT3(D835Y); conditions: Compound Concentration (nM):1000
# unit: % | format: bare number

Study these solved cases before continuing.
COc1cccc(-n2ncc3c(N/N=C/c4ccncc4)ncnc32)c1 [GW784752X] | 48
Cl.O=C(Nc1ccc(Oc2ccc3[nH]c(NC(=O)c4ccccc4)nc3c2)cc1)Nc1cc(C(F)(F)F)ccc1F [GW709042A] | 14
NS(=O)(=O)c1ccc(N/N=C2\C(=O)Nc3ccc(Cl)cc32)cc1 [GW280670X] | 100
COc1cc(/C=N/Nc2ncnc3[nH]ncc23)ccc1O [GW578748X] | 25
Cl.O=C(O[C@H]1CN[C@H](C#Cc2cc3ncnc(Nc4ccc5c(cnn5Cc5ccccc5)c4)c3s2)C1)N1CCOCC1 [GSK200398A] | 89

Query block: Report Percent Control for CC(C)COC(=O)c1ccc2c(c1)/C(=C/Nc1ccc(S(N)(=O)=O)cc1)C(=O)N2 [GW416981X] please.
Result block: 1.1

Query block: Requested field: Percent Control. Item: Cc1cc(O)cc(C)c1/C=C/c1cncc(C(N)=O)c1 [GW435821X]
Result block: 75

Query block: Request the reported Percent Control associated with CN1CCN(C(=O)c2ccc(NC(=O)Nc3ccc(N(C)c4ccnc(Nc5ccc(CS(C)(=O)=O)cc5)n4)cc3)cc2)CC1.Cl [GW830263A]
Result block: 5.3

Query block: Any idea what its Percent Control is? The compound is NS(=O)(=O)c1ccc(N/N=C2\C(=O)Nc3ccc(C(=O)NCCc4c[nH]cn4)cc32)cc1 [GW300660X]
Result block: 62

Query block: Which Percent Control is listed for NS(=O)(=O)c1ccc(N/N=C2\C(=O)Nc3ccc(C(=O)NCc4ccncc4)cc32)cc1 [GW300657X] ?
Result block: 46

Query block: What does the record list as Percent Control for COc1ccc(COc2ccc(Cc3cnc(N)nc3N)cc2OC)cc1 [GW632580X] ?
Result block: 81

Query block: Record request: Percent Control value, item C[C@@H](Oc1cc(-n2cnc3ccc(OC4CCN(C)CC4)cc32)sc1C(N)=O)c1ccccc1Cl [GSK579289A]
Result block: 38

Query block: Data request, read-out Percent Control, for O=C(Nc1n[nH]c2nc(-c3ccc(O)cc3)c(Br)cc12)C1CC1 [SB-725317]
Result block: 33

Query block: Which Percent Control is listed for CC1=C(C(=O)Nc2ccc3[nH]ncc3c2)C(c2ccc(Cl)c(Cl)c2)CC(=O)N1 (centres unmarked) [GSK299115A] ?
Result block: 87

Query block: What value of Percent Control has been reported for the following compound? COc1ccc2[nH]c3c4[nH]c5ccc(OC)cc5c4c4c(c3c2c1)C(=O)NC4=O [GW296115X]
Result block: 16

Query block: Given the entry Nc1ncnc2occ(-c3ccc(NC(=O)Nc4cc(C(F)(F)F)ccc4F)cc3)c12 [GW770249X] , report its measured Percent Control.
Result block: 11

Query block: Fill in the blank: the reported Percent Control of Cl.c1ccc(Cc2nc3ccc(Nc4ncnc5ccccc45)cc3[nH]2)cc1 [GR269666A] is ____.
Result block: 97

* * *

tested on: PCTK3; construct: gene CDK18; conditions: Compound Concentration (nM):1000
Each entry below carries its recorded Percent Control.
Entry rule: numbers only, all in %.

COc1cc(N2CCN(C(C)C)CC2)ccc1Nc1nc(Nc2ccc(F)cc2C(=O)NC[C@@H](O)CO)c2cc[nH]c2n1 [GSK1392956A] | 100
COc1ccc2c(-c3ccnc(Nc4cccc(OC(F)(F)F)c4)n3)cnn2n1 [GW810372X] | 99
Nc1ncnc2occ(-c3ccc(NC(=O)Nc4cc(C(F)(F)F)ccc4F)cc3)c12 [GW770249X] | 31

Query block: Form entry - test system: PCTK3; read-out: Percent Control; compound: Cl.c1ccc(Cc2nc3ccc(Nc4ncnc5ccccc45)cc3[nH]2)cc1 [GR269666A]
Result block: 100

* * *

system: MAST1; conditions: Compound Concentration (nM):1000
measurementType: Percent Control

COc1cc(C=NNc2ncnc3c2cnn3-c2ccccc2)ccc1O [GW513184X] | 83%

Query block: What Percent Control value was documented for this compound, NS(=O)(=O)c1ccc(Nc2ncc(-c3ccccc3)o2)cc1 [GW572399X] ?
Result block: 100%

Query block: What measured Percent Control goes with CN(C)CCNC(=O)Nc1ccc(N(C)c2ccnc(Nc3ccc(CS(C)(=O)=O)cc3)n2)cc1.Cl [GW830900A] ?
Result block: 57%

* * *

test system: GSK3B; conditions: Compound Concentration (nM):1000
measurementType: Percent Control (%)
Numbers only; they are read as %.

Check out these entries, answers already filled in.
NS(=O)(=O)c1ccc(N/N=C2\C(=O)Nc3ccc(C(=O)NCCc4c[nH]cn4)cc32)cc1 [GW300660X] | 19
COc1ccc2[nH]c3c4[nH]c5ccc(OC)cc5c4c4c(c3c2c1)C(=O)NC4=O [GW296115X] | 68
Cl.c1ccc(Cc2nc3ccc(Nc4ncnc5ccccc45)cc3[nH]2)cc1 [GR269666A] | 99
NS(=O)(=O)c1ccc(N/N=C2\C(=O)Nc3ccc(Cl)cc32)cc1 [GW280670X] | 91
NS(=O)(=O)c1ccc(N/N=C2\C(=O)Nc3ccc(C(=O)NCc4ccncc4)cc32)cc1 [GW300657X] | 35
CCc1ccc(Oc2nccc(-c3c(-c4ccc(F)cc4)ncn3C3CCNCC3)n2)cc1 | 100

Query block: Item NS(=O)(=O)c1ccc(N/N=C2\C(=O)Nc3ccc(-c4cnco4)cc32)cc1 has what recorded Percent Control?
Result block: 80

Query block: Percent Control for COc1cccc(-c2c[nH]c3c(N/N=C/c4ccncc4)ncnc23)c1 [GW814408X] ?
Result block: 1

Query block: Which Percent Control value is on record for COC(=O)Nc1nc2ccc(Oc3ccc(NC(=O)Nc4cc(C(F)(F)F)ccc4F)cc3)cc2s1.Cl [GW693917A] ?
Result block: 99

Query block: Quick one: Percent Control for COc1cccc(-n2ncc3c(N/N=C/c4ccncc4)ncnc32)c1 [GW784752X] ?
Result block: 2.5
